# TARGET_ENTITY: T1, AXL-His (Sino Biological Inc., 6x His labels, molecular weight 47.5 Kda) (UniProt P30530-2 26-440, limits assumed)
# T1 construct: Bought reagent; also called target antigen AXL-His; target antigen AXL; not shown: 6x His tag
# T1 sequence (looked up): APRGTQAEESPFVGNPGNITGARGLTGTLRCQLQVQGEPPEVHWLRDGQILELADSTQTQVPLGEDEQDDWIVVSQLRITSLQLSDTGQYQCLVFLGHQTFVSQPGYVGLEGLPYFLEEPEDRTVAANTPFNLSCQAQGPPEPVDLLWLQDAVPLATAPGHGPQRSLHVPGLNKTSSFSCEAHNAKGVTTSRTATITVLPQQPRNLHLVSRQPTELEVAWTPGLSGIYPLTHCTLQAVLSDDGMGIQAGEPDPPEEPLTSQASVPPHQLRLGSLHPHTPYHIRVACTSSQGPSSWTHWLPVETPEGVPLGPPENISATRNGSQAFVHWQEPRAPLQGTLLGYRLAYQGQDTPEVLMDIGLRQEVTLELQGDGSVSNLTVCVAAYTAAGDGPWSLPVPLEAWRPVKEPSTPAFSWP
# ASSAY_NOTES: SPR (Biacore T-200), antibody captured on chip, AXL-His as analyte
MEASUREMENT_NAME: kon (M⁻¹ s⁻¹)

binder="antibody 6G12M41 (antibody, V domains shown) VH: QVQLVQSGPGLVKPSQSLSLTCSVTGFSISSGYYWNWIRQFPGQKLEWMGYRSYDGSNNYGPSLKNRISITRDTSKNQFFLKLNSVTSEDTATYYCARGWLLHYTMDYWGQGTTVTVSS VL: DIVMTQSPSSVSVTLGQSASISCRSSRSLLHSNGFTYLYWYLQKPGQSPQLLIYQMSNLASGVPDRFSGSGSGTDFTLKISRVEAEDVGVYYCGQNLELPLTFGGGTKLEIK" measurement_name=kon unit_of_measurement="M⁻¹ s⁻¹" value_measured=41500
binder="antibody 6G12M21 (antibody, human IgG1, kappa, V domains shown) VH: QVQLVQSGPGLVKPSQSLSLTCSVTGFSISSGYYWNWIRQFPGQKLEWMGYRSYDGSNNYNPSLKNRISITRDTSKNQFFLKLNSVTSEDTATYYCARGWLLHYTMDYWGQGTTVTVSS VL: DIVMTQSPSSVSVTLGQSASISCRSSRSLLHSNGFTYLYWYLQKPGQSPQLLIYQMSNLASGVPDRFSGSGSGTDFTLKISRVEAEDVGVYYCGQNLELPLTFGGGTKLEIKR" measurement_name=kon unit_of_measurement="M⁻¹ s⁻¹" value_measured=112000
binder="antibody 6G12M31 (antibody, V domains shown) VH: QVQLVQSGPGLVKPSQSLSLTCSVTGFSISSGYYWNWIRQFPGQKLEWMGYRSYDGSNNYDPSLKNRISITRDTSKNQFFLKLNSVTSEDTATYYCARGWLLHYTMDYWGQGTTVTVSS VL: DIVMTQSPSSVSVTLGQSASISCRSSRSLLHSNGFTYLYWYLQKPGQSPQLLIYQMSNLASGVPDRFSGSGSGTDFTLKISRVEAEDVGVYYCGQNLELPLTFGGGTKLEIK" measurement_name=kon unit_of_measurement="M⁻¹ s⁻¹" value_measured=39700
binder="antibody 6G12M11 (antibody, human IgG1, kappa, V domains shown) VH: QVQLVQSGPGLVKPSQSLSLTCAVTGFSISSGYYWNWIRQFPGQKLEWMGYRSYDGSNNYNPSLKNRISITRDTSKNQFFLKLNSVTSEDTATYYCARGWLLHYTMDYWGQGTTVTVSS VL: EIVMTQSPSSVSVTLGQSASISCRSSRSLLHSNGFTYLYWYLQKPGQSPQLLIYQMSNLASGVPDRFSGSGSGTDFTLKISRVEAEDVGVYYCGQNLELPLTFGGGTKLEIKR" measurement_name=kon unit_of_measurement="M⁻¹ s⁻¹" value_measured=97400
